Molecular target: Bcl-2 protein (Recombinant Human Bcl-2 Protein) (Homo sapiens)
Construct: purchased Novus NBP2-34889
Assay: Binding evaluation of mixture library compounds to Bcl-2 using AS-MS (affinity selection mass spectrometry)
Conditions: AS-MS, mixture of 1200 compounds, Bcl-2; ASMS Ratio(%)=(A−C)/B×100; replicate n = 1
value_kind: ASMS ratio (%) n = 1

compound	assay_target	value_kind	numeric_readout
CCCNC(=O)c1ccc(N2CCN(Cc3ccc(-c4cccc(OCC)c4)c(C)c3)CC2)cc1 [B1M058-01]	Bcl-2 protein (Recombinant Human Bcl-2 Protein) (Homo sapiens)	ASMS ratio (%) n = 1	−1.4

(a) CCOc1cncc(-c2csc(CN3CCN(c4ccc(C(=O)NCC(F)(F)F)nn4)CC3)c2)c1 [B1K094-01]
(b) CCOc1cccc(-c2csc(CN3CCN(c4ccc(C(=O)NCC56CC7CC(CC(C7)C5)C6)nn4)CC3)c2)c1 [B1A093-01]
(c) CCOc1cccc(-c2ccc(CN3CCN(c4ccc(C(=O)NCC(F)(F)F)cc4)CC3)cc2F)c1 [B1K051-01]
Put the compounds in ascending order of ASMS ratio (%) n = 1. Submit the labels in the order that the ranking request calls for.
b, a, c

(1) CCOc1cccc(C#Cc2ccccc2C(=O)N2CCN(c3ccc(C(=O)NCC45CC6CC(CC(C6)C4)C5)nn3)CC2)c1 [B1A007-01]
(2) CCOc1cncc(-c2cc(CN3CCN(c4ccc(C(=O)NCC(F)(F)F)nn4)CC3)cc(C(F)(F)F)c2)c1 [B1K088-01]
Hey, which is lower on measured ASMS ratio (%) n = 1, 1 or 2 ? // respond with label for picked entry
1
(1: 0.0%, 2: 2.2%)

(P) CCOc1cccc(-c2cc(CN3CCN(c4ccc(C(=O)NCC(F)(F)F)nn4)CC3)cc(OC(F)(F)F)c2)c1 [B1K089-01]
(Q) CCCNC(=O)c1ccc(N2CCN(Cc3cc(-c4cccc(OCC)c4)cc(C(F)(F)F)c3)CC2)nn1 [B1M027-01]
(R) CCOc1cccc(-c2cc(C(=O)N3CCN(c4ccc(C(=O)NCC56CC7CC(CC(C7)C5)C6)cc4)CC3)cc(C(F)(F)F)c2)c1 [B1A039-01]
Put the compounds in ascending order of ASMS ratio (%) n = 1. Submit the labels in the order that the ranking request calls for.
Q, P, R
(Q: 1.0%, P: 2.0%, R: 6.3%)

(1) CCOc1cncc(C#Cc2cc(C(=O)N3CCN(c4ccc(C(=O)NCC(F)(F)F)nn4)CC3)cc(C(F)(F)F)c2)c1 [B1K020-01]
(2) CCOc1cccc(-c2cc(OC)c(CN3CCN(c4ccc(C(=O)NCC56CC7CC(CC(C7)C5)C6)nn4)CC3)c(OC)c2)c1 [B1A085-01]
(3) CCOc1cccc(-c2cc(CN3CCN(c4ccc(C(=O)NCC(F)(F)F)cc4)CC3)cc(OCC)c2)c1 [B1K055-01]
(4) CCOc1cncc(C#Cc2ccccc2C(=O)N2CCN(c3ccc(C(=O)NCC45CC6CC(CC(C6)C4)C5)cc3)CC2)c1 [B1A030-01]
Put the compounds in ascending order of ASMS ratio (%) n = 1. Submit the labels in the order that the ranking request calls for.
3, 1, 4, 2
(3: −0.8%, 1: 2.9%, 4: 6.9%, 2: 10.6%)

====

Target: Bcl-2 protein (Recombinant Human Bcl-2 Protein) (Homo sapiens, UniProt P10415)
Construct: purchased Novus NBP2-34889
Sequence (P10415 whole entry): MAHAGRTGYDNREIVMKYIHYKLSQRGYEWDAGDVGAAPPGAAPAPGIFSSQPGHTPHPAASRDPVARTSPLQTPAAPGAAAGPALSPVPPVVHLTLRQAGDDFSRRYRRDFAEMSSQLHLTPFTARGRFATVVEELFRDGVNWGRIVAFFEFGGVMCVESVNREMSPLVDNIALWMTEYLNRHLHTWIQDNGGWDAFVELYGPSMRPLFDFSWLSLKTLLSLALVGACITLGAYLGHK
Assay: Binding evaluation of mixture library compounds to Bcl-2 using AS-MS (affinity selection mass spectrometry)
Settings: AS-MS, mixture of 1200 compounds, Bcl-2; ASMS Ratio(%)=(A−C)/B×100; replicate n = 2
value_kind: ASMS ratio (%) n = 2

1. CCCNC(=O)c1ccc(N2CCN(Cc3ccccc3-c3cncc(OCC)c3)CC2)nn1 −3.1
2. CCOc1cccc(-c2csc(CN3CCN(c4ccc(C(=O)NCC(F)(F)F)nn4)CC3)c2)c1 −0.4
3. CCOc1cccc(-c2ccc(CN3CCN(c4ccc(C(=O)NCC(F)(F)F)cc4)CC3)c(CC)c2)c1 1.5
4. CCOc1cncc(-c2ccc(C(=O)N3CCN(c4ccc(C(=O)NCC56CC7CC(CC(C7)C5)C6)nn4)CC3)cc2F)c1 9.1
5. CCOc1cncc(-c2cc(C(=O)N3CCN(c4ccc(C(=O)NCC56CC7CC(CC(C7)C5)C6)nn4)CC3)cc(C(C)(C)C)c2)c1 −4.6

(A) CCOc1cccc(C#Cc2cc(C(=O)N3CCN(c4ccc(C(=O)NCC56CC7CC(CC(C7)C5)C6)cc4)CC3)cc(C(F)(F)F)c2)c1
(B) CCOc1cccc(-c2cc(CN3CCN(c4ccc(C(=O)NCC56CC7CC(CC(C7)C5)C6)cc4)CC3)cc(C(F)(F)F)c2)c1
(C) CCOc1cncc(-c2cc(CN3CCN(c4ccc(C(=O)NCC(F)(F)F)nn4)CC3)cc(OC(F)(F)F)c2)c1
(D) CCOc1cncc(-c2cc(CN3CCN(c4ccc(C(=O)NCC56CC7CC(CC(C7)C5)C6)nn4)CC3)cc(OCC)c2)c1
Rank order required: ASMS ratio (%) n = 2, descending. Submit the labels in the order that the ranking request calls for.
B, D, C, A
(B: 1.1%, D: 0.2%, C: −1.9%, A: −4.0%)

(P) CCOc1cccc(-c2ccc(CN3CCN(c4ccc(C(=O)NCC56CC7CC(CC(C7)C5)C6)nn4)CC3)c(OC)c2)c1
(Q) CCOc1cncc(-c2cnn(-c3cc(C(=O)N4CCN(c5ccc(C(=O)NCC(F)(F)F)nn5)CC4)cc(C(F)(F)F)c3)c2)c1
Hey, which is lower on measured ASMS ratio (%) n = 2, P or Q ? // respond with label for picked entry
P
(P: −3.9%, Q: 0.1%)

(1) CCOc1cncc(-c2ccccc2CN2CCN(c3ccc(C(=O)NCC(F)(F)F)cc3)CC2)c1
(2) CCOc1cncc(-c2cc(OC)c(CN3CCN(c4ccc(C(=O)NCC(F)(F)F)nn4)CC3)c(OC)c2)c1
Hi team, can someone confirm which has the larger ASMS ratio (%) n = 2: 1 or 2 ? Thanks. // respond with label for picked entry
1
(1: 0.5%, 2: 0.0%)

====

Target: Bcl-2 protein (Recombinant Human Bcl-2 Protein) (Homo sapiens)
Construct: purchased Novus NBP2-34889
Test: Binding evaluation of mixture library compounds to Bcl-2 using AS-MS (affinity selection mass spectrometry)
Conditions: AS-MS, mixture library, Bcl-2; replicate n = 2; ASMS Ratio(%)=(A−C)/B×100
value_kind: ASMS ratio (%) n = 2

These recorded examples may help you get a feel for the data.
compound	assay_target	ASMS ratio (%) n = 2
CCOc1cccc(-c2cc(C(=O)N3CCN(c4ccc(C(=O)NS(C)(=O)=O)nn4)CC3)cc(C(C)(C)C)c2)c1 [B2I015-01]	Bcl-2 protein (Recombinant Human Bcl-2 Protein) (Homo sapiens)	0.0
CCOc1cncc(-c2cc(C(=O)N3CCN(c4ccc(C(=O)NS(=O)(=O)CC56CC7CC(CC(C7)C5)C6)nn4)CC3)cc(C(F)(F)F)c2)c1 [B2A018-01]	Bcl-2 protein (Recombinant Human Bcl-2 Protein) (Homo sapiens)	0.0
CCOc1cncc(-c2cc(C(=O)N3CCN(c4ccc(C(=O)NS(C)(=O)=O)nn4)CC3)cc(C(C)(C)C)c2)c1 [B2I016-01]	Bcl-2 protein (Recombinant Human Bcl-2 Protein) (Homo sapiens)	0.0
CCOc1cncc(-c2ccc(C(C)N3CCN(c4ccc(C(=O)N(CC)CC)cc4)CC3)cc2)c1 (stereo not drawn) [B4J098-01]	Bcl-2 protein (Recombinant Human Bcl-2 Protein) (Homo sapiens)	−0.2

(1) CCOc1cncc(C#Cc2ccccc2C(=O)N2CCN(c3ccc(C(=O)NS(=O)(=O)c4ccc(NCCSc5ccccc5)c([N+](=O)[O-])c4)cc3)CC2)c1 [B2Q030-01]
(2) CCOc1cccc(-c2ccc(CN3CCN(c4ccc(C(=O)NS(=O)(=O)c5ccc(NCCSc6ccccc6)c([N+](=O)[O-])c5)nn4)CC3)c(OC)c2)c1 [B2Q079-01]
Hey, which is lower on measured ASMS ratio (%) n = 2, 1 or 2 ? // respond with label for picked entry
1
(1: −4.1%, 2: 0.0%)

====

Target: Bcl-2 protein (Recombinant Human Bcl-2 Protein) (Homo sapiens)
Construct: purchased Novus NBP2-34889
Experiment: Binding evaluation of mixture library compounds to Bcl-2 using AS-MS (affinity selection mass spectrometry)
Details: AS-MS, mixture of 1200 compounds, Bcl-2; ASMS Ratio(%)=(A−C)/B×100; replicate n = 1
value_kind: ASMS ratio (%) n = 1

These recorded examples may help you get a feel for the data.
1) CCOc1cccc(-c2ccc(CN3CCN(c4ccc(C(=O)NCC56CC7CC(CC(C7)C5)C6)nn4)CC3)cc2F)c1 6.6
2) CCOc1cccc(-c2cc(CN3CCN(c4ccc(C(=O)NCC56CC7CC(CC(C7)C5)C6)nn4)CC3)cc(OCC)c2)c1 −10.9
3) CCOc1cccc(-c2ccc(C(=O)N3CCN(c4ccc(C(=O)NCC56CC7CC(CC(C7)C5)C6)nn4)CC3)cc2C)c1 7.5
4) CCOc1cncc(-c2ccccc2CN2CCN(c3ccc(C(=O)NCC45CC6CC(CC(C6)C4)C5)cc3)CC2)c1 0.0
5) CCOc1cncc(-c2ccc(C(=O)N3CCN(c4ccc(C(=O)NCC(F)(F)F)nn4)CC3)cc2C)c1 0.0
6) CCOc1cccc(-c2ccc(C(=O)N3CCN(c4ccc(C(=O)NCC56CC7CC(CC(C7)C5)C6)cc4)CC3)cc2F)c1 6.7
7) CCOc1cccc(-c2cnn(-c3cc(C(=O)N4CCN(c5ccc(C(=O)NCC67CC8CC(CC(C8)C6)C7)cc5)CC4)cc(C(F)(F)F)c3)c2)c1 3.8
8) CCOc1cncc(C#Cc2cc(C(=O)N3CCN(c4ccc(C(=O)NCC(F)(F)F)cc4)CC3)cc(C(F)(F)F)c2)c1 5.0

(I) CCOc1cccc(-c2cc(OC)c(CN3CCN(c4ccc(C(=O)NCC56CC7CC(CC(C7)C5)C6)cc4)CC3)c(OC)c2)c1
(II) CCOc1cccc(-c2cnn(-c3cc(C(=O)N4CCN(c5ccc(C(=O)NCC(F)(F)F)nn5)CC4)cc(C(F)(F)F)c3)c2)c1
Hey, which is lower on measured ASMS ratio (%) n = 1, I or II ? // respond with label for picked entry
II
(II: −0.5%, I: 7.7%)
